Molecular target: T1, Cdt1 (115-353) (UniProt Q9H211 115-353)
T1 chain: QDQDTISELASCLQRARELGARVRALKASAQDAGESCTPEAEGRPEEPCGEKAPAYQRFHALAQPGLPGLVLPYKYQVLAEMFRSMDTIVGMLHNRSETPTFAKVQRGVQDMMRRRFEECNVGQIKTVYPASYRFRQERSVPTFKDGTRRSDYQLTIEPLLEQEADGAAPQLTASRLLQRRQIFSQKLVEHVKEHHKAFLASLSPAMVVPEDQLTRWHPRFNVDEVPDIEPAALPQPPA
Test: ITC
endpoint-name: pKd
Notebook: values listed as pKd are -log10 of the concentration (mol/L).

Which pKd reading was recorded for the binder tGeminin-tGeminin homodimer (complex) TQESFDLMIKENPSSQYWKEVAEKRRKALYEALKENEKLHKEIEQKDNEIARLKKENKELAEVAEHVQYMAELIERLNG ?
8.59

Origin of measurements: paper PMC3814758
